- Target Or Test System: T1, human CD71 extracellular domain (human, UniProt P02786 89-760)
- T1 construct: also called hCD71; human CD71-ECD
- T1 sequence (P02786 89-760): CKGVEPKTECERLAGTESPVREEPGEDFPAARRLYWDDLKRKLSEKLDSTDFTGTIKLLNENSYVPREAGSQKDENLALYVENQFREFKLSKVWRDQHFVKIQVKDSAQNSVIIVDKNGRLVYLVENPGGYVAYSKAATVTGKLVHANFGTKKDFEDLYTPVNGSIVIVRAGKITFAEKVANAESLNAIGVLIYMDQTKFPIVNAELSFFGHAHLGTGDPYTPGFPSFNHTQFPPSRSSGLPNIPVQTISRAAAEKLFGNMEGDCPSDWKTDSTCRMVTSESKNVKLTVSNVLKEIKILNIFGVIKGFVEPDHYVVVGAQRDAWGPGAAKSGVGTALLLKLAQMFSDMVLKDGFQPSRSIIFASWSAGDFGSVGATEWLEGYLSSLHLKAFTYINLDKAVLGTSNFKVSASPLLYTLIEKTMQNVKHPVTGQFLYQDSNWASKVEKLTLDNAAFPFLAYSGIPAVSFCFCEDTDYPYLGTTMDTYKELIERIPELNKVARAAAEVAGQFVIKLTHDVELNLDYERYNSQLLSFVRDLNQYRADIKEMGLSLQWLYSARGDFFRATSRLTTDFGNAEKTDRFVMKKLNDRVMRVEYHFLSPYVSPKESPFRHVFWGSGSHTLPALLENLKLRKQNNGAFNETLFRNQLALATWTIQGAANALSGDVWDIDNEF
- Method Notes: primary ELISA; further: test concentration or dose not given here
Reported Property: RLU (RLU)
Return type: number; implicit unit RLU.

- CD71-binding FN3 domain of SEQ ID NO: 159 (designed binder) MSLPAPKNLVVSRVTEDSARLSWTAPDAAFDSFEIVYQENSAYGEAIVLTVPGSERSYDLTGLKPGTEYWVQIGGVKGGNWSAPLSAISTT: 2.64e+06

Here is the next item to consider.
Input line: Requested field: RLU. Item: CD71-binding FN3 domain of SEQ ID NO: 180 (designed binder) MSLPAPKNLVVSRVTEDSARLSWTAPDAAFDSFFIGYLEPQPPGEAISLYVPGSERSYDLTGLKPGTEYNVTIQGVKGGFPSEPLIANFTT
Output line: 6.68e+06
